- Test Protocol: Approximate solubility at 25° C. and 50° C. (visual)
- Assay type: physicochemical
- Particulars: 2-MeTHF, 50 °C, organic solvent or mixture, thermodynamic from solid, 2-MeTHF, 50° C.; read-out: Solubility
Result Type: solubility

Exercise: I have this compound here, CCN(C)S(=O)(=O)Nc1ccc(F)c(Oc2ccc3ncn([C@H]4COC5(CCN(C(=O)CC6(O)CCN(c7cc8c(cc7F)c(N7CCC(=O)NC7=O)nn8C)CC6)CC5)C4)c(=O)c3c2)c1C#N [Compound 1 Form A] , and I need its recorded solubility.
Solution: < 10000 µg/mL

====

- Test Protocol: Approximate solubility at 25° C. and 50° C. (visual)
- Assay type: physicochemical
- Particulars: water, 25 °C, water, thermodynamic from solid, Water, 25° C.; read-out: Solubility
Result Type: solubility

Exercise: I have this molecule here, CCN(C)S(=O)(=O)Nc1ccc(F)c(Oc2ccc3ncn([C@H]4COC5(CCN(C(=O)CC6(O)CCN(c7cc8c(cc7F)c(N7CCC(=O)NC7=O)nn8C)CC6)CC5)C4)c(=O)c3c2)c1C#N [Compound 1 Form A] , and I need its recorded solubility.
Solution: < 5000 µg/mL

====

- Test Protocol: Plasma and tumor pharmacokinetics in A2058 xenograft mice
- Assay type: in vivo, BALB/c nude mice
- Particulars: BALB/c nude, mouse, tumor, oral; 6 h; single dose p.o.; Compound 1 10 mg/kg; Encorafenib 35 mg/kg; Dabrafenib 100 mg/kg; read-out: Concentration in Tumor ± SEM
Result Type: concentration at 6 h (ng/g)
Just the number in ng/g, nothing appended.

Exercise: I have this molecule here, CCN(C)S(=O)(=O)Nc1ccc(F)c(Oc2ccc3ncn([C@H]4COC5(CCN(C(=O)CC6(O)CCN(c7cc8c(cc7F)c(N7CCC(=O)NC7=O)nn8C)CC6)CC5)C4)c(=O)c3c2)c1C#N , and I need its recorded concentration at 6 h.
Solution: 1170

Exercise: I have this molecule here, COC(=O)N[C@@H](C)CNc1nccc(-c2cn(C(C)C)nc2-c2cc(Cl)cc(NS(C)(=O)=O)c2F)n1 , and I need its recorded concentration at 6 h.
Solution: 289

Exercise: I have this molecule here, CC(C)(C)c1nc(-c2cccc(NS(=O)(=O)c3c(F)cccc3F)c2F)c(-c2ccnc(N)n2)s1 , and I need its recorded concentration at 6 h.
Solution: 480

====

- Test Protocol: Plasma and tumor pharmacokinetics in A2058 xenograft mice
- Assay type: in vivo, BALB/c nude mice
- Particulars: BALB/c nude, mouse, tumor, oral; 12 h; single dose p.o.; Compound 1 10 mg/kg; Encorafenib 35 mg/kg; Dabrafenib 100 mg/kg; read-out: Concentration in Tumor ± SEM
Result Type: concentration at 12 h (ng/g)
Just the number in ng/g, nothing appended.

Exercise: I have this compound here, CC(C)(C)c1nc(-c2cccc(NS(=O)(=O)c3c(F)cccc3F)c2F)c(-c2ccnc(N)n2)s1 , and I need its recorded concentration at 12 h.
Solution: 81.9

Exercise: I have this compound here, COC(=O)N[C@@H](C)CNc1nccc(-c2cn(C(C)C)nc2-c2cc(Cl)cc(NS(C)(=O)=O)c2F)n1 , and I need its recorded concentration at 12 h.
Solution: 58.8

Exercise: I have this compound here, CCN(C)S(=O)(=O)Nc1ccc(F)c(Oc2ccc3ncn([C@H]4COC5(CCN(C(=O)CC6(O)CCN(c7cc8c(cc7F)c(N7CCC(=O)NC7=O)nn8C)CC6)CC5)C4)c(=O)c3c2)c1C#N , and I need its recorded concentration at 12 h.
Solution: 191
